- System tested: human PPARγ ligand-binding domain (Gal4 chimera) (Homo sapiens)
- Construct: coding for the hinge region and LBD of the canonical isoform of the respective nuclear receptor; expressed in transfected cells; host or cells: HEK293T
- Sequence (P37231 238-503 limits assumed, change not shown): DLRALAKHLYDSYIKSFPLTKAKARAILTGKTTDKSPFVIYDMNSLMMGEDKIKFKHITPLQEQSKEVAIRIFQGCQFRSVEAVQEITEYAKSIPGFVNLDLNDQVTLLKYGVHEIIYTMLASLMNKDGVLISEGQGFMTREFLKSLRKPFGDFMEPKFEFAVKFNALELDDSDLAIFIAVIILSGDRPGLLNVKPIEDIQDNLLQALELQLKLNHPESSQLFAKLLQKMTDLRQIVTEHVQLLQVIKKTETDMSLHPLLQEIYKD
- Assay remarks: Gal4 hybrid reporter gene assay, PPARγ
- Type: cell-based
For each entry below, report its log10(EC50) value.
Would you kindly interpret these values as log10 of EC50 expressed in µM?

The recorded log10(EC50) for entry O=C(O)COc1cccc(NC(=O)c2ccccc2NC(=O)c2ccc3ccccc3c2)c1 equals 1.28

The recorded log10(EC50) for entry O=C(O)CCc1cccc(NC(=O)c2ccccc2NC(=O)c2ccc(-c3cocn3)cc2)c1 equals 0.78

The recorded log10(EC50) for entry O=C(O)CCc1cccc(NC(=O)c2cc(OC(F)(F)F)ccc2NC(=O)c2ccc3ccccc3c2)c1 equals 0.04

The recorded log10(EC50) for entry O=C(O)CCc1cccc(NC(=O)c2cc(Cl)ccc2NC(=O)c2ccc3ccccc3c2)c1 equals 0.78

The recorded log10(EC50) for entry O=C(O)Cc1ccccc1NC(=O)c1ccccc1NC(=O)c1ccc2ccccc2c1 equals 0.23

The recorded log10(EC50) for entry Cc1cccc(C(=O)Nc2cccc(CCC(=O)O)c2)c1NC(=O)c1ccc2ccccc2c1 equals 0.85

The recorded log10(EC50) for entry O=C(O)CCc1cccc(NC(=O)c2ccccc2NC(=O)c2ccc(-c3ccco3)cc2)c1 equals 0.34

The recorded log10(EC50) for entry Cc1ccc(NC(=O)c2ccc3ccccc3c2)c(C(=O)Nc2cccc(CCC(=O)O)c2)c1 equals 0.52

---

- System tested: human PPARδ ligand-binding domain (Gal4 chimera) (Homo sapiens)
- Construct: coding for the hinge region and LBD of the canonical isoform of the respective nuclear receptor; expressed in transfected cells; host or cells: HEK293T
- Sequence (Q03181 211-439 limits assumed): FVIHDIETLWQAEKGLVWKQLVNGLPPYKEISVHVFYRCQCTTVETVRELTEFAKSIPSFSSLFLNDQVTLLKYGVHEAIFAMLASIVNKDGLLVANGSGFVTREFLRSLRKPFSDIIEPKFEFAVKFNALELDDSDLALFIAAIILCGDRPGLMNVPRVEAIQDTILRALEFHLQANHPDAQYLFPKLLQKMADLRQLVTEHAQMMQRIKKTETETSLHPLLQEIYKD
- Assay remarks: Gal4 hybrid reporter gene assay, PPARδ
- Assay type: cell-based
- Run parameters: PPARδ EC50, as stated in text
Experimental readout: EC50 (nM)
Express your answer in nM, writing the number without its unit.

The recorded EC50 for entry CC(C)(C)c1ccc(C(=O)Nc2cccc(CCC(=O)O)c2)c(NC(=O)c2ccc(-c3ccco3)cc2)c1 equals 141

---

- System tested: human PPARδ ligand-binding domain (Gal4 chimera) (Homo sapiens)
- Construct: coding for the hinge region and LBD of the canonical isoform of the respective nuclear receptor; expressed in transfected cells; host or cells: HEK293T
- Assay remarks: Gal4 hybrid reporter gene assay, PPARδ
- Type: cell-based
- Parameters: dose or concentration left out as unconfirmed
- Run parameters: read-out: max. rel. act. PPARδ
For each record, check the reported Emax: if it is below 30% write Y, else write N.

Does COc1ccc(NC(=O)c2ccc3ccccc3c2)c(C(=O)Nc2cccc(CCC(=O)O)c2)c1 have Emax strictly under 30%?
Y

Does COc1ccc(C(=O)Nc2cccc(NCC(=O)O)c2)c(NC(=O)c2ccc(-c3ccoc3)cc2)c1 have Emax strictly under 30%?
N

Does Cc1cccc(NC(=O)c2ccc3ccccc3c2)c1C(=O)Nc1cccc(CCC(=O)O)c1 have Emax strictly under 30%?
Y

Does O=C(O)CCc1cccc(NC(=O)c2ccccc2NC(=O)c2ccc(-c3ccon3)cc2)c1 have Emax strictly under 30%?
Y

Does O=C(O)Cc1cccc(NC(=O)c2ccccc2NC(=O)c2ccc3ccccc3c2)c1 have Emax strictly under 30%?
N

Does COc1ccc(C(=O)Nc2cccc(CCC(=O)O)c2)c(NC(=O)c2ccc3ccccc3c2)c1 have Emax strictly under 30%?
N

Does O=C(O)CCc1cccc(NC(=O)c2ccc(O)cc2NC(=O)c2ccc3ccccc3c2)c1 have Emax strictly under 30%?
N

Does O=C(O)CCc1cccc(NC(=O)c2ccccc2NC(=O)c2ccc(-c3cnco3)cc2)c1 have Emax strictly under 30%?
N
